test system: P. falciparum stage V gametocytes; parameters: BacTiter-Glo ATP luminescence viability of purified stage V gametocytes in 384-well plates, per cent inhibition versus DMSO; conditions: 48 h, 5 µM; inhibitor
About 3,200 (25%) of roughly 13,000 compounds showed an effect of 50% or more. This is one part of the list.
% Inhibition overview
OBSERVABLE: % Inhibition (%)

{"COMPOUND": "CC(=O)c1c(Cc2cccc(C(F)(F)F)c2)c[nH]c1C [TCMDC-124434]", "MEASURE UNIT": "%", "MEASURED VALUE": -10.65}
{"COMPOUND": "Cc1cc(NC(=O)N=C(N)N)ccc1Cl [TCMDC-137470]", "MEASURE UNIT": "%", "MEASURED VALUE": 23.53}
{"COMPOUND": "O=C(c1ccc([N+](=O)[O-])o1)N1CCN(c2nc3c(Cl)cccc3s2)CC1 [TCMDC-124316]", "MEASURE UNIT": "%", "MEASURED VALUE": 86.16}
{"COMPOUND": "Nc1nc(N)c2c(ccc3nccc32)[nH]1 [TCMDC-124301]", "MEASURE UNIT": "%", "MEASURED VALUE": -21.41}
{"COMPOUND": "CCCCCCCCn1c2c(c(=N)c3c1CCC3)CCCC2 [TCMDC-125653]", "MEASURE UNIT": "%", "MEASURED VALUE": 74.53}
{"COMPOUND": "CCCCCCCn1c2c(c(=N)c3c1CCC3)CCCC2 [TCMDC-125606]", "MEASURE UNIT": "%", "MEASURED VALUE": 41.76}
{"COMPOUND": "CCCCCCn1c2c(c(=N)c3c1CCC3)CCCC2 [TCMDC-124215]", "MEASURE UNIT": "%", "MEASURED VALUE": 19.97}
{"COMPOUND": "O=C(Nc1ccc(N2CCN(Cc3ccccc3Cl)CC2)cc1)c1ccc([N+](=O)[O-])o1 [TCMDC-125230]", "MEASURE UNIT": "%", "MEASURED VALUE": 2.358}
{"COMPOUND": "O=C(c1ccc([N+](=O)[O-])o1)N1CCN(c2ccccc2)CC1 [TCMDC-125833]", "MEASURE UNIT": "%", "MEASURED VALUE": 2.332}

----------
system: P. falciparum stage V gametocytes; parameters: BacTiter-Glo ATP luminescence viability of purified stage V gametocytes in 384-well plates, per cent inhibition versus DMSO; conditions: 48 h, 5 µM; inhibitor
Out of some 13,000 compounds screened, about 3,200 (25%) showed an effect of 50% or more. The list shows a part of the results.

{"STRUCTURE SMILES STRING": "N#Cc1ccc(C2CCN(CC[C@H](N)Cc3ccc(Cl)s3)CC2)cc1", "MEASURE UNIT": "%", "% Inhibition": 63.71}
{"STRUCTURE SMILES STRING": "c1ccc2c(NCCCCCCCCNc3ccnc4ccccc34)ccnc2c1", "MEASURE UNIT": "%", "% Inhibition": 124.8}
{"STRUCTURE SMILES STRING": "COc1cc(-n2cnc3cc(-c4ccc(Cl)cc4)sc3c2=O)ccc1OCCN1CCC(c2cccc(NC(C)=O)c2)CC1", "MEASURE UNIT": "%", "% Inhibition": 71.5}
{"STRUCTURE SMILES STRING": "CCSc1nc2sc3c(c2c(=O)n1-c1ccccc1)CCN(C)C3", "MEASURE UNIT": "%", "% Inhibition": 14.1}
